Test system: HOP-92
procedure summary: NCI tumour cell line growth inhibition, 48 h
Activity calls are given as the source filed them. Rule as the data show it: active = GI50 up to about 1.1 µM and inactive = higher.
Thanks in advance; please answer with one of these: active, inactive

IN: What did the test return for "COC(=O)/C(C#N)=C1\NN=NN1c1ccc(OC)cc1" ?
OUT: inactive

IN: What did the test return for CC(=O)CC(OC(C)=O)C1=CCC2C(CC1C)OC(=O)C2C (configuration not stated) ?
OUT: inactive

IN: What did the test return for CC(=O)Nc1ccc(C2SCc3nc4ccccc4n32)cc1 (configuration not stated) ?
OUT: inactive

IN: What did the test return for "CCc1n[nH]c(=O)n1CCCCCCCCCCCCn1c(CC)n[nH]c1=O" ?
OUT: inactive
